Target: E. coli Topoisomerase IV (Escherichia coli, UniProt P0AFI2+P20083)
Construct: made in house; host or cells: E. coli overexpressing strains
Sequence (P20083 whole entry): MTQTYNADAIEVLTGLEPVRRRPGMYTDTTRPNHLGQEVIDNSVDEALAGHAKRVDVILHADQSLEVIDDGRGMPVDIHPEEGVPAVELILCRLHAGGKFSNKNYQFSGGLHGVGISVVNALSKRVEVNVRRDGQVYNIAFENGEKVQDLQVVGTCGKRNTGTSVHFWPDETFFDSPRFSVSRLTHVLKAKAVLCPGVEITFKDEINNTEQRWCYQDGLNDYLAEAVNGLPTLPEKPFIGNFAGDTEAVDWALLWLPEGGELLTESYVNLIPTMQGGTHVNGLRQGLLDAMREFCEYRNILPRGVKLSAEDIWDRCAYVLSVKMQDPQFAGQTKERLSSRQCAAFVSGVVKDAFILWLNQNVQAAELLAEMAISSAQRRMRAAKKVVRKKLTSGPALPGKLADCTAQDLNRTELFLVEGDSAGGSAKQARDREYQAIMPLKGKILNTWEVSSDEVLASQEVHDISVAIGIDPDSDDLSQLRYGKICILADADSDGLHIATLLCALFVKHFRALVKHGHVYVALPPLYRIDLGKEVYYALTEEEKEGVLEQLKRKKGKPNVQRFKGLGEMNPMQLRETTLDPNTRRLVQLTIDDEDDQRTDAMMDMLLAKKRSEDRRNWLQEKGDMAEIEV
Sequence (P0AFI2 whole entry): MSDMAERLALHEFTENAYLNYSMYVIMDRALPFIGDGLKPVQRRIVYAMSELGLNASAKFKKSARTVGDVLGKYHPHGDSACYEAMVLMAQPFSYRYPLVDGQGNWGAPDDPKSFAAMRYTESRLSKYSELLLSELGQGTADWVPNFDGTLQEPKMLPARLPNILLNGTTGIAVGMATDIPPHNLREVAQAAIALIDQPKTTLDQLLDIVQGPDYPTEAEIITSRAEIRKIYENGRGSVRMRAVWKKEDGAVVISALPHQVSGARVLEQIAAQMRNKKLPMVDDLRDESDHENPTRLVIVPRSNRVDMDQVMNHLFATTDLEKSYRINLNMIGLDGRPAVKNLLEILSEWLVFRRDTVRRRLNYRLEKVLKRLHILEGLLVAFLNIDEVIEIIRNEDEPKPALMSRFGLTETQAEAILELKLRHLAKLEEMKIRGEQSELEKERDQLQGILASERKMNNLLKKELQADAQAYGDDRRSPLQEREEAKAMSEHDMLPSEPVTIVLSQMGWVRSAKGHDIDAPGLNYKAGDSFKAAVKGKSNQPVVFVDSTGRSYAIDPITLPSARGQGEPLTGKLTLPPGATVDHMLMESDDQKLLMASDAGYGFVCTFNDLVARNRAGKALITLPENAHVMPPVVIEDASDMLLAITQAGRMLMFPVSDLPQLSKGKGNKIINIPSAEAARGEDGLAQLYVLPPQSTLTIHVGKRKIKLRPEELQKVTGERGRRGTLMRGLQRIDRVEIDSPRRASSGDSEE
Assay: Topoisomerase IV k-DNA decatenation assay
Assay type: biochemical
Conditions: k-DNA decatenation, 10 minutes at 37° C.; read-out: DNA TopIV IC50
Protocol: Topoisomerase IV assay: Topoisomerase IV was purified from E. coli overexpressing strains, and the compounds were assayed according to literature conditions (Journal of Biological Chemistry, 1993;268(32):24481). The k-DNA decatenation assay was used. Briefly, reactions were performed in buffer R (40 mM Tris-HCl (pH 7.5),6 mM MgCl2, 10 mM DTT, 100 mM potassium glutamate, 40 μM ATP, 50 μg/mL bovine serum albumin, 10 mM NaCl). […]
Entries and their pIC50 values follow.
A value of pIC50 is the negative decimal logarithm of a concentration given in moles per litre.

Consider the worked cases shown below.
1. NC1CCN(c2cc3c(cc2F)c(=O)n(O)c(=O)n3C2CC2)C1 (stereo not drawn): 5.05
2. O=c1c2cc(F)c(N3CCCC3)cc2n(C2CC2)c(=O)n1O: 4.24

Let me check: N[C@@H]1[C@H]2CN(c3cc4c(cc3F)c(=O)n(O)c(=O)n4C3CC3)C[C@@H]12.O=C(O)C(F)(F)F , system E. coli Topoisomerase IV (Escherichia coli, UniProt P0AFI2+P20083), measured pIC50 is 4.55

Hello, the source for this data is patent US6825199B2, in case you need it.
